Where do these numbers come from? They come from patent US7138361B2.

Would you mind telling me the reported Plant response rating, Barnyardgrass of each entry?
# Test system: barnyardgrass (Echinochloa crus-galli)
# PROTOCOL NOTES: Test B flooded paddy test
# Assay type: in vivo
# STUDY CONDITIONS: Rate 1000 g/ha, scale of 0 to 100 where 0 is no effect and 100 is complete control, visually evaluated after 13 to 15 days
Numbers only.

Some solved cases for reference:
Tell me the measured Plant response rating, Barnyardgrass of O=C1C(n2cccn2)CCN1c1cccc(C(F)(F)F)c1 (stereo not shown) , please.
0

Tell me the measured Plant response rating, Barnyardgrass of CC(C)(C)c1ccn(C2CCN(c3cccc(C(F)(F)F)c3)C2=O)n1 (stereo not shown) , please.
100

Batch of 7 compounds: report Plant response rating, Barnyardgrass for each.
1. CC(C)(C)c1ccn(C2CCN(c3ccc(F)c(Cl)c3)C2=O)n1 (stereo not shown)
2. O=C1C(n2cc(Cl)c(C3CC3)n2)CCN1c1cccc(C(F)(F)F)c1 (stereo not shown)
3. CC(C)(C)c1ccn(C2CCN(c3cccc(C(F)(F)F)c3)C2=S)n1 (stereo not shown)
4. CC(C)(C)c1ccn(C2C(=O)N(c3cccc(C(F)(F)F)c3)C[S+]2[O-])n1 (stereo not shown)
5. Cc1ccc(N2CCC(n3ccc(C(C)(C)C)n3)C2=O)cc1C(F)(F)F (stereo not shown)
6. O=C1C(n2ccc(C3CCCCC3)n2)SCN1c1cccc(C(F)(F)F)c1 (stereo not shown)
7. O=C1C(n2ccc(C3CCCCC3)n2)SCN1c1cccc(OC(F)(F)F)c1 (stereo not shown)

1: 100; 2: 0; 3: 100; 4: 0; 5: 70; 6: 100; 7: 100

----------
Would you mind telling me the reported Plant response rating, Cocklebur of each entry?
# Tested on: cocklebur (Xanthium strumarium)
# PROTOCOL NOTES: Test C postemergence
# Format: in vivo
# STUDY CONDITIONS: Rate 62 g/ha, scale 0 to 100
# Description: […]
Answers are plain numbers.

Tell me the measured Plant response rating, Cocklebur of CCC(C)c1ccn(C2CCN(c3ccc(C)c(OC)c3)C2=O)n1 (centres unmarked) [Compound 80] , please.
20

Tell me the measured Plant response rating, Cocklebur of CCC(C)c1ccn(C2SCN(c3cccc(OC(F)(F)F)c3)C2=O)n1 (centres unmarked) [Compound 40] , please.
0

Tell me the measured Plant response rating, Cocklebur of O=C1C(n2ccc(C3CCC3)n2)SCN1c1cccc(OC(F)(F)F)c1 (centres unmarked) [Compound 38] , please.
0

Tell me the measured Plant response rating, Cocklebur of CCC(C)c1ccn(C2CCN(c3ccc(Br)c(OC)c3)C2=O)n1 (centres unmarked) [Compound 142] , please.
30

Now look at this entry.
Tell me the measured Plant response rating, Cocklebur of CCOc1cc(N2CCC(n3ccc(C(C)(C)C)n3)C2=O)ccc1C (centres unmarked) [Compound 106] , please.
30

----------
# System: johnsongrass (Sorghum halepense)
# PROTOCOL NOTES: Test C preemergence
# Format: in vivo
# STUDY CONDITIONS: Rate 62 g/ha; scale 0 to 100, 0 no effect, 100 complete control
Kindly return True if reported Plant response rating, Johnsongrass is no lower than 20; return False if it is lower.

These solved cases illustrate the format of a correct answer.
Check this molecule for Plant response rating, Johnsongrass at or above 20: CCC(CC)c1ccn(C2CCN(c3ccc(C)c(OC)c3)C2=O)n1 (centres unmarked)
False

Check this molecule for Plant response rating, Johnsongrass at or above 20: CCC(C)c1ccn(C2SCN(c3cccc(C(F)(F)F)c3)C2=O)n1 (centres unmarked)
False

Check this molecule for Plant response rating, Johnsongrass at or above 20: O=C1C(n2ccc(C3CC3)n2)OCN1c1cccc(C(F)(F)F)c1 (centres unmarked)
True

More entries:
Check this molecule for Plant response rating, Johnsongrass at or above 20: CC(C)(C)c1ccn(C2CCN(c3cccc(Cl)c3)C2=O)n1 (centres unmarked)
False

Check this molecule for Plant response rating, Johnsongrass at or above 20: CC1(c2ccn(C3SCN(c4cccc(C(F)(F)F)c4)C3=O)n2)CC1 (centres unmarked)
True

Check this molecule for Plant response rating, Johnsongrass at or above 20: CC(C)(C)c1ccn(C2CCN(c3cccc(OC(F)(F)F)c3)C2=O)n1 (centres unmarked)
False

Check this molecule for Plant response rating, Johnsongrass at or above 20: CC(C)(C)c1ccn(C2SCN(c3cccc(OC(F)F)c3)C2=O)n1 (centres unmarked)
True

Check this molecule for Plant response rating, Johnsongrass at or above 20: CC(C)c1ccn(C2SCN(c3cccc(OC(F)F)c3)C2=O)n1 (centres unmarked)
False

Check this molecule for Plant response rating, Johnsongrass at or above 20: CCC(C)c1ccn(C2SCN(c3cccc(OC(F)(F)F)c3)C2=O)n1 (centres unmarked)
True

Check this molecule for Plant response rating, Johnsongrass at or above 20: CC(C)Oc1cccc(N2CCC(n3ccc(C(C)(C)C)n3)C2=O)c1 (centres unmarked)
False

----------
# Test system: barnyardgrass (Echinochloa crus-galli)
# PROTOCOL NOTES: Test B preemergence
# Format: in vivo
# STUDY CONDITIONS: preemergence; Rate 125 g/ha; scale of 0 to 100 where 0 is no effect and 100 is complete control; 13 to 15 days
MEASURE NAME: Plant response rating, Barnyardgrass
Answers are plain numbers.

Fill in the recorded Plant response rating, Barnyardgrass for this compound, with barnyardgrass (Echinochloa crus-galli) as test system: O=C1C(n2ccc(C3CCCCC3)n2)OCN1c1cccc(C(F)(F)F)c1 (centres unmarked) [Compound 51]
80

Fill in the recorded Plant response rating, Barnyardgrass for this compound, with barnyardgrass (Echinochloa crus-galli) as test system: CCC(CC)c1ccn(C2CCN(c3cccc(OC(C)C)c3)C2=O)n1 (centres unmarked) [Compound 84]
100

Fill in the recorded Plant response rating, Barnyardgrass for this compound, with barnyardgrass (Echinochloa crus-galli) as test system: O=C1C(n2ccc(C3CCCCC3)n2)SCN1c1cccc(OC(F)(F)F)c1 (centres unmarked) [Compound 50]
0

Batch of 3 compounds: report Plant response rating, Barnyardgrass for each.
1. CCOc1cccc(N2CCC(n3ccc(C(C)C)n3)C2=O)c1 (centres unmarked) [Compound 128]
2. Cc1c(F)cc(N2CCC(n3ccc(C(C)(C)C)n3)C2=O)cc1Br (centres unmarked) [Compound 78]
3. COc1cc(C)nc(N2CCC(n3ccc(C(C)(C)C)n3)C2=O)n1 (centres unmarked) [Compound 137]

1. 100
2. 0
3. 0

----------
# System: Surinam grass (Brachiaria decumbens)
# PROTOCOL NOTES: Test C preemergence
# Format: in vivo
# STUDY CONDITIONS: Rate 62 g/ha; scale 0 to 100, 0 no effect, 100 complete control
MEASURE NAME: Plant response rating, Surinam grass

Some solved cases for reference:
Fill in the recorded Plant response rating, Surinam grass for this compound, with Surinam grass (Brachiaria decumbens) as test system: CC(C)(C)c1ccn(C2CCN(c3ccc(Cl)c(Br)c3)C2=O)n1 (stereo not drawn) [Compound 56]
0

Fill in the recorded Plant response rating, Surinam grass for this compound, with Surinam grass (Brachiaria decumbens) as test system: CC1(c2ccn(C3OCN(c4cccc(C(F)(F)F)c4)C3=O)n2)CC1 (stereo not drawn) [Compound 62]
0

Fill in the recorded Plant response rating, Surinam grass for this compound, with Surinam grass (Brachiaria decumbens) as test system: CCC(C)c1ccn(C2SCN(c3cccc(C(F)(F)F)c3)C2=O)n1 (stereo not drawn) [Compound 20]
0

Fill in the recorded Plant response rating, Surinam grass for this compound, with Surinam grass (Brachiaria decumbens) as test system: CC(C)(C)c1ccn(C2CCN(c3cccc(Cl)c3)C2=O)n1 (stereo not drawn) [Compound 43]
0

Fill in the recorded Plant response rating, Surinam grass for this compound, with Surinam grass (Brachiaria decumbens) as test system: CC(C)(C)c1ccn(C2CCN(c3cccc(OC(F)(F)F)c3)C2=O)n1 (stereo not drawn) [Compound 49]
0

Batch of 4 compounds: report Plant response rating, Surinam grass for each.
1. CC1(c2ccn(C3SCN(c4cccc(OC(F)(F)F)c4)C3=O)n2)CC1 (stereo not drawn) [Compound 63]
2. O=C1C(n2ccc(C3CCCCC3)n2)SCN1c1cccc(C(F)(F)F)c1 (stereo not drawn) [Compound 52]
3. CCC(C)c1ccn(C2OCN(c3cccc(OC(F)(F)F)c3)C2=O)n1 (stereo not drawn) [Compound 67]
4. COC(=O)c1cccc(N2CCC(n3ccc(C(C)(C)C)n3)C2=O)c1 (stereo not drawn) [Compound 73]

1. 20
2. 0
3. 0
4. 50

----------
# Tested on: corn (Zea mays)
# PROTOCOL NOTES: Test C postemergence
# Type: in vivo
# STUDY CONDITIONS: scale 0 to 100
Would you mind telling me the reported Plant response rating, Corn of each entry?
One number for each entry.

Tell me the measured Plant response rating, Corn of CCCOc1cc(N2CCC(n3ccc(C(C)(C)C)n3)C2=O)ccc1C (stereo not shown) , please.
0

Tell me the measured Plant response rating, Corn of CCC(CC)c1ccn(C2OCN(c3cccc(OC(F)F)c3)C2=O)n1 (stereo not shown) , please.
10

Batch of 2 molecules: report Plant response rating, Corn for each.
1. Cc1ccc(N2CCC(n3ccc(C(C)(C)C)n3)C2=O)cc1I (stereo not shown)
2. Cc1ccc(N2CCC(n3ccc(C(C)(C)C)n3)C2=O)cc1OCCCl (stereo not shown)

0
40
